# Test system: 292921-168-R-J2-PDC complex spheroid growth;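 note: spheroids exposed to compounds for seven days after three days of growth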
# test-description: Anticancer human tumor 292921-168-R-J2-PDC patient-derived pancreatic carcinoma cell line growth inhibition [AhR]; active = viability on the fitted dose curve at most 10% of control; inactive = the rest
# study-conditions: second compound 0.316 µM; first compound 0.1 µM
Possible outcomes: active, inactive

compound	label-class
COc1ccc([C@@H](O)c2cc(-c3ncnc4cc(N5CCOCC5)ccc34)c(F)cc2Cl)nn1 + CC(CO)NC(=O)c1cc(-c2ccc(Cl)cc2)nn(-c2cnn(C)c2)c1=O	inactive
CC1(C)CCC(CN2CCN(c3ccc(C(=O)NS(=O)(=O)c4ccc(NCC5CCOCC5)c([N+](=O)[O-])c4)c(Oc4cnc5[nH]ccc5c4)c3)CC2)=C(c2ccc(Cl)cc2)C1 + Cc1ccccc1N=Nc1ccc(NC(=O)c2ccnn2C)c(C)c1	inactive
COc1cc(Nc2ncc3c(n2)-c2ccc(Cl)cc2C(c2c(F)cccc2OC)=NC3)ccc1C(=O)O + Cc1ccccc1N=Nc1ccc(NC(=O)c2ccnn2C)c(C)c1	inactive
CC1COCCN1c1cc(C2(S(C)(=N)=O)CC2)nc(-c2ccnc3[nH]ccc23)n1 (configuration not stated) + Cc1cncc(-c2nc(NCCc3c[nH]c4ccccc34)c3ncn(C(C)C)c3n2)c1	inactive
O=C(C=Cc1cccc(S(=O)(=O)Nc2ccccc2)c1)NO + Cc1cncc(-c2nc(NCCc3c[nH]c4ccccc34)c3ncn(C(C)C)c3n2)c1	inactive
CC1COCCN1c1cc(-c2ccnn2C)c2ccnc(-c3ccn[nH]3)c2n1 (configuration not stated) + Cc1cncc(-c2nc(NCCc3c[nH]c4ccccc34)c3ncn(C(C)C)c3n2)c1	inactive
Nc1ccccc1NC(=O)c1ccc(CNC(=O)OCc2cccnc2)cc1 + CC(CO)NC(=O)c1cc(-c2ccc(Cl)cc2)nn(-c2cnn(C)c2)c1=O	inactive
CC(C)c1c(-c2ccccc2)nc2c(C#N)c[nH]n2c1=O + Cc1cncc(-c2nc(NCCc3c[nH]c4ccccc34)c3ncn(C(C)C)c3n2)c1	inactive
CC1COCCN1c1cc(-c2ccnn2C)c2ccnc(-c3ccn[nH]3)c2n1 (configuration not stated) + CC(CO)NC(=O)c1cc(-c2ccc(Cl)cc2)nn(-c2cnn(C)c2)c1=O	inactive
CC(C)c1c(-c2ccccc2)nc2c(C#N)c[nH]n2c1=O + CC(CO)NC(=O)c1cc(-c2ccc(Cl)cc2)nn(-c2cnn(C)c2)c1=O	inactive
Nc1ccn(C2OC(CO)C(O)C2(F)F)c(=O)n1 (configuration not stated) + Cc1ccccc1N=Nc1ccc(NC(=O)c2ccnn2C)c(C)c1	active
Nc1ccccc1NC(=O)c1ccc(CNC(=O)OCc2cccnc2)cc1 + Cc1cncc(-c2nc(NCCc3c[nH]c4ccccc34)c3ncn(C(C)C)c3n2)c1	inactive
